Biological target: T1, CRBN, Q96SW2;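 further: pooled lentiviral library of zinc finger degron-EGFP fusions in mCherry-positive Jurkat cells, FACS-sorted after compound exposure, with degron abundance counted by next-generation sequencing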
T1 chain: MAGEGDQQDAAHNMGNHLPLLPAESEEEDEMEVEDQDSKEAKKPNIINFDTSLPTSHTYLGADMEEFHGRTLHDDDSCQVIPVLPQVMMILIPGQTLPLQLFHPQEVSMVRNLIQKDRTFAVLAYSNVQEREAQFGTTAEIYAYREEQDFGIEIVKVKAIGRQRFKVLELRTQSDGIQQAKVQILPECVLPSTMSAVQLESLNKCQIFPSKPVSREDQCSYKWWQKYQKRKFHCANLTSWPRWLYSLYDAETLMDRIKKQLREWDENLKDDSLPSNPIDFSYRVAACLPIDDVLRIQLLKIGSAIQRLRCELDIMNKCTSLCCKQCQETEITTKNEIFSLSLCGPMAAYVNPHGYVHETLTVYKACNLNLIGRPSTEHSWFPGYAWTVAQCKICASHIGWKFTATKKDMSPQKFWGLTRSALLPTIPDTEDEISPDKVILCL
Test: log2 fold change of degron read counts, EGFP-low vs EGFP+ sorted cells (limma voom), compound-induced degradation; higher = more compound-induced degradation of the degron-EGFP fusion; degrons are variants of IKZF1/3 zinc finger 2; compound dose not given here
Details: Jurkat; 18 h; compound: compound 22 (5-morpholino-thalidomide)
In all, about 8,300 sequences were measured (“log2 fold change of degron read counts, EGFP-low vs EGFP+ sorted cells (limma voom), compound-induced degradation”: median about -1.1, highest 2% from about 3.2 on). For the sample, the highest values were picked, then their nearest neighbours and some sequences at random.
Task for the reader: assign each of the following sequences its reported log2 fold change of degron read counts.
# answer = number (no unit)

Give the measured log2 fold change of degron read counts of LYCEICGFICTQKGNLLRHIKL [46L_47Y_49E_50I_52G_53F_54I_55C_67L_, Q9UKT9] .
3.26

Give the measured log2 fold change of degron read counts of LNCPICGFECTQKGNLLRHIKL [46L_47N_49P_50I_52G_53F_54E_55C_67L_, Q9UKT9] .
-0.0323

Give the measured log2 fold change of degron read counts of FSCEICGRYFTQKGNLLRHIKL [46F_47S_49E_50I_52G_53R_54Y_55F_67L_, Q9UKT9] .
-1.64

Give the measured log2 fold change of degron read counts of LTCNQCGFKCTQKGNLLRHIKL [46L_47T_49N_50Q_52G_53F_54K_55C_67L_, Q9UKT9] .
-1.85

Give the measured log2 fold change of degron read counts of FFCEICGRYFTQKGNLLRHIKL [46F_47F_49E_50I_52G_53R_54Y_55F_67L_, Q9UKT9] .
0.578

Give the measured log2 fold change of degron read counts of LCCEICGFICTQKGNLLRHIKL [46L_47C_49E_50I_52G_53F_54I_55C_67L_, Q9UKT9] .
0.557

Give the measured log2 fold change of degron read counts of LFCEICGFMCTQKGNLLRHIKL [46L_47F_49E_50I_52G_53F_54M_55C_67L_, Q9UKT9] .
3.12

Give the measured log2 fold change of degron read counts of FCCPICGHFFTQKGNLLRHIKL [46F_47C_49P_50I_52G_53H_54F_55F_67L_, Q9UKT9] .
-2.1

Give the measured log2 fold change of degron read counts of LECEICGFRCTQKGNLLRHIKL [46L_47E_49E_50I_52G_53F_54R_55C_67L_, Q9UKT9] .
-0.831

Give the measured log2 fold change of degron read counts of FICNQCGAGFTQKGNLLRHIKL [46F_47I_49N_50Q_52G_53A_54G_55F_67L_, Q9UKT9] .
-1.54

Give the measured log2 fold change of degron read counts of LKCEICGFRCTQKGNLLRHIKL [46L_47K_49E_50I_52G_53F_54R_55C_67L_, Q9UKT9] .
-2.46

Give the measured log2 fold change of degron read counts of FMCEICGHIFTQKGNLLRHIKL [46F_47M_49E_50I_52G_53H_54I_55F_67L_, Q9UKT9] .
-2.92

Give the measured log2 fold change of degron read counts of LQCEICGFRCTQKGNLLRHIKL [46L_47Q_49E_50I_52G_53F_54R_55C_67L_, Q9UKT9] .
1.55

Give the measured log2 fold change of degron read counts of LFCEICGFRCTQKGNLLRHIKL [46L_47F_49E_50I_52G_53F_54R_55C_67L_, Q9UKT9] .
3.64

Give the measured log2 fold change of degron read counts of FRCNQCGHHFTQKGNLLRHIKL [46F_47R_49N_50Q_52G_53H_54H_55F_67L_, Q9UKT9] .
-2.49
